Procedure text: FIH study 67856633LYM1001 plasma pharmacokinetics
Assay type: in vivo, human
Conditions used: human, plasma, oral, 600 mg, Cycle 1 Day 1, 200 mg capsule, cohort 3 × 200 mg; individual values, N = 2; read-out: Tmax
Property: Tmax

Lookup result for O=C(Nc1ccnc(C(F)(F)F)c1)c1cnn(-c2cccc3c(=O)[nH]ccc23)c1C(F)(F)F [Compound A] ; measured Tmax: 3 h

---

Procedure text: Single oral dose plasma PK in fasted dogs
Assay type: in vivo, dog
Conditions used: male, beagle, dog, plasma, po, 22.5 mg/kg, 3M, 22.5 mg/kg PO, PEG400/PVP VA 90:10 solution, Study 6
Property: half-life (min)
Provide only the numeric value, understood in min.

Measured half-life, O=C(Nc1ccnc(C(F)(F)F)c1)c1cnn(-c2cccc3c(=O)[nH]ccc23)c1C(F)(F)F : 846

---

Procedure text: Single IV dose plasma PK
Format: in vivo, rat
Conditions used: male, Sprague-Dawley (S-D), rat, plasma, iv, 1 mg/kg, Rat, S-D, 6M, 1 mg/kg IV, dosed as the -ZAF salt; read-out: Vdss
Property: Vd (L/kg)
Quick reminder: number only, in L/kg, skip the unit.

Lab note: O=C(Nc1ccnc(C(F)(F)F)c1)c1cnn(-c2cccc3c(=O)[nH]ccc23)c1C(F)(F)F gave Vd of 0.622

---

Procedure text: FIH study 67856633LYM1001 plasma pharmacokinetics
Type: in vivo, human
Conditions used: human, plasma, oral, 300 mg, Cycle 2 Day 1, 50 mg capsule, cohort 6 × 50 mg (300 mg QD); mean; read-out: Cmax
Property: Cmax

Sample O=C(Nc1ccnc(C(F)(F)F)c1)c1cnn(-c2cccc3c(=O)[nH]ccc23)c1C(F)(F)F [Compound A] ; Cmax observed: ~55.2 µg/mL

---

Procedure text: FIH study 67856633LYM1001 plasma pharmacokinetics
Assay type: in vivo, human
Conditions used: human, plasma, oral, 400 mg, Cycle 2 Day 1, 200 mg capsule, cohort 2 × 200 mg food adlib; mean; read-out: AUCτ
Property: AUC

Entry O=C(Nc1ccnc(C(F)(F)F)c1)c1cnn(-c2cccc3c(=O)[nH]ccc23)c1C(F)(F)F [Compound A] — recorded AUC = 1330 µg·h/mL

---

Procedure text: FIH study 67856633LYM1001 plasma pharmacokinetics
Assay type: in vivo, human
Conditions used: human, plasma, oral, 400 mg, Cycle 2 Day 1, 200 mg capsule, cohort 2 × 200 mg food adlib; median; read-out: Tmax
Text: The study consists of a dose escalation phase (Part 1), to determine the recommended Phase 2 dose(s) (RP2D[s]), followed by an expansion phase at the RP2D(s) (Part 2). The dose escalation phase is supported using an adaptive dose escalation strategy guided by the modified continual reassessment method (mCRM) based on a Bayesian Logistic Regression Model (BLRM) with escalation with overdose control (EWOC) principle. […]
Property: Tmax (h)
Write down the numeric answer in h and omit the unit.

Looking up O=C(Nc1ccnc(C(F)(F)F)c1)c1cnn(-c2cccc3c(=O)[nH]ccc23)c1C(F)(F)F , I found its Tmax recorded as 8

---

Procedure text: Preliminary food effect assessment at steady state
Type: in vivo, human
Conditions used: human, plasma, oral, 100 mg, 2 × 50 mg, fed condition, steady state; individual values, N = 2
Property: AUC (µg·h/mL)
Give the number; µg·h/mL is assumed, so skip it.

O=C(Nc1ccnc(C(F)(F)F)c1)c1cnn(-c2cccc3c(=O)[nH]ccc23)c1C(F)(F)F has a reported AUC of 304
